- target system: T1, human IL-33 (R&D Systems, #3625-IL-010/CF) (human, UniProt O95760 112-270)
- T1 sequence (looked up): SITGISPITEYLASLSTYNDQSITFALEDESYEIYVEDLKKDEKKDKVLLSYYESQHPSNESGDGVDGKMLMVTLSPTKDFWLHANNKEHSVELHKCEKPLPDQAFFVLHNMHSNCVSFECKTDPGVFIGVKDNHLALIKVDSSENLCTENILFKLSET
- assay info: cell-based or functional assay
quantity name: IC50, inhibition of 10 pM hIL-33 activation of HEK293/hST2/NFkB-luciferase cells (M)
Use M as the unit, but write only the number.

Reference set, count: 2
H4H9667P (antibody, human IgG4, V domains shown, Human IgG4 Fc (H4H)) VH: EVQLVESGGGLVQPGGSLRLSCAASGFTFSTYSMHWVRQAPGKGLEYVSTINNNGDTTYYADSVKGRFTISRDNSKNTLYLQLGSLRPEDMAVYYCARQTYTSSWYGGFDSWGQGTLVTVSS VL: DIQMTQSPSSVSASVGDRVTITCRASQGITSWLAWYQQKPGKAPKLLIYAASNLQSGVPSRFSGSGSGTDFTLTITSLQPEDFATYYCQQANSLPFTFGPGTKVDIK ... 7.1e-11
H1M9566N (antibody, mouse IgG1, V domains shown, Human variable domains, mouse IgG1 Fc (H1M)) VH: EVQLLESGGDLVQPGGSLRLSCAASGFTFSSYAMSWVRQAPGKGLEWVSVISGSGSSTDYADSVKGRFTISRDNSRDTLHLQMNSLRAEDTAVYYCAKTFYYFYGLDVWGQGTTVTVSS VL: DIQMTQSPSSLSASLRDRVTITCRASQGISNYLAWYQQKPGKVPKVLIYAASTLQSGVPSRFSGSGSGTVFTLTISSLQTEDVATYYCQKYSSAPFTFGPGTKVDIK ... 9.5e-10

Now for the binder whose IC50, inhibition of 10 pM hIL-33 activation of HEK293/hST2/NFkB-luciferase cells we want.
query: Item under review: H1M9559N (antibody, mouse IgG1, V domains shown, Human variable domains, mouse IgG1 Fc (H1M)) VH: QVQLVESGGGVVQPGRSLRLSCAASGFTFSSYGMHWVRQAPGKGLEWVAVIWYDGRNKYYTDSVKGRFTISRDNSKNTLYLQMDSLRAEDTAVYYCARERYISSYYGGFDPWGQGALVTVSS VL: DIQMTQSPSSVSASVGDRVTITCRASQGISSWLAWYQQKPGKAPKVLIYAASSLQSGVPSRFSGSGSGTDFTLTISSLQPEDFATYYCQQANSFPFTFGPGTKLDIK . Reported IC50, inhibition of 10 pM hIL-33 activation of HEK293/hST2/NFkB-luciferase cells?
result: 2e-09
